Biological target: CGRP1 receptor (CRLR/RAMP1 complex) of human neuroblastoma SK-N-MC cells (human, UniProt Q16602 23-461; O60894 27-148)
Sequence (Q16602 23-461, chain 1 of 2): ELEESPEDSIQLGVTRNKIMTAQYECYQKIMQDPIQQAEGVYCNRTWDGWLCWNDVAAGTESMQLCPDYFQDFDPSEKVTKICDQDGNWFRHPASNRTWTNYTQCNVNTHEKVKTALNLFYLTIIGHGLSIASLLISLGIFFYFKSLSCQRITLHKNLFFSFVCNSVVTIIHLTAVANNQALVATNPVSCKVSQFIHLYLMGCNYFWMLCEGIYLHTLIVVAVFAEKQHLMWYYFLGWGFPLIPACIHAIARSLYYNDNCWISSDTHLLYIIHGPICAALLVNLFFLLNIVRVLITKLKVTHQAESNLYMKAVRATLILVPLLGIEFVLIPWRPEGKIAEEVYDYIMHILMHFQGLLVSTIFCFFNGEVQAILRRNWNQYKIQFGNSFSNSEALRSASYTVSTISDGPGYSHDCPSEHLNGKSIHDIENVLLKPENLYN
Sequence (O60894 27-148, chain 2 of 2): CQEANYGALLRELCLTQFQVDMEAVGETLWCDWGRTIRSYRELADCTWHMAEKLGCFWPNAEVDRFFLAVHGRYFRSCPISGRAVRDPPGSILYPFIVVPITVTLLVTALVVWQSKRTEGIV
Experiment: cell-based or functional assay
Bridge positions count the residues as written; N and C are the ends. Square brackets hold non-standard residues; d marks the D form. 1Nal = N[C@@H](Cc1cccc2ccccc12)C(=O)O; hArg = N=C(N)NCCCC[C@H](N)C(=O)O; Cit = NC(=O)NCCC[C@H](N)C(=O)O; Aib = CC(C)(N)C(=O)O
We label by threshold. Values of PEG-peptide IC50 strictly beneath 7 nM are t. Values of 7 nM and up are f.

# example entries with known answers
>>> label("WVTHXLAGLLSXSGGVVXKNFVPTDVGPXAF (Ac-WVTH[hArg]LAGLLS[Cit]SGGVV[hArg]KNFVPTDVGP[2-Nal]AF-NH2; PEG-conjugated (Table 2C: in most cases at Lys^25)) [PEG-peptide of SEQ ID NO 926]")
"t"
>>> label("Ac-[Aib]WVEH[hArg]LKGLLS[Cit]SGGVVRKNFVPTDVGPFAF-NH2 (lactam 4-8; also: PEG-conjugated, in most cases at Lys25) [PEG-peptide of SEQ ID NO 898]")
"f"
>>> label("WVTHRXAGLLSRXGGVVRKNFVPTDVGPFAF (Ac-WVTHR[NMeLeu]AGLLSR[NMeSer]GGVVRKNFVPTDVGPFAF-NH2; PEG-conjugated (Table 2C: in most cases at Lys^25)) [PEG-peptide of SEQ ID NO 874]")
"f"
>>> label("Ac-WVEHRLKGLLS[hArg]SGGVV[hArg]KNFVPTDVGPFAF-NH2 (lactam 3-7; also: PEG-conjugated, in most cases at Lys25) [PEG-peptide of SEQ ID NO 905]")
"t"
>>> label("Ac-[1Nal]VEH[hArg]LKGLLS[Cit]SGGVVRKNFVPTDVGPFAF-NH2 (lactam 3-7; also: PEG-conjugated, in most cases at Lys25) [PEG-peptide of SEQ ID NO 897]")
"t"
>>> label("Ac-WVEHRLKGLLSQSGGVV[hArg]KNFVPTDVGPFAF-NH2 (lactam 3-7; also: PEG-conjugated, in most cases at Lys25) [PEG-peptide of SEQ ID NO 904]")
"t"

Req: Decide: PEG-peptide IC50 of WVTHRLAGLLSXSGGVVRKNFVPTDVGPFAF (Ac-WVTHRLAGLLS[Cit]SGGVVRKNFVPTDVGPFAF-NH2; PEG-conjugated (Table 2C: in most cases at Lys^25)) [PEG-peptide of SEQ ID NO 862] strictly below 7 nM?
Resp: t

Req: Another binder: WVTHXLAGLLSXSGGVVXKNFVPTDVGPFAF (Ac-WVTH[hArg]LAGLLS[hCit]SGGVV[hArg]KNFVPTDVGPFAF-NH2; PEG-conjugated (Table 2C: in most cases at Lys^25)) [PEG-peptide of SEQ ID NO 887]
Resp: t

Req: Another binder: WVTHRLAGLLSXSGGVVRKNFVPTDVGPFAF (Ac-WVTHRLAGLLS[hArg]SGGVVRKNFVPTDVGPFAF-NH2; PEG-conjugated (Table 2C: in most cases at Lys^25)) [PEG-peptide of SEQ ID NO 864]
Resp: t

Req: Another binder: Ac-WVTHRLAGLASRPGGVVRKNFVPTDVGPFAF-NH2 (also: PEG-conjugated, in most cases at Lys25) [PEG-peptide of SEQ ID NO 859]
Resp: f
